Tested on: MIA-PACA2 pancreatic cancer cell lines
Assay Procedure: Cell proliferation assay, alternate assay conditions (DAPI fluorescence)
Type: cell-based
Assay Setup: Homo sapiens, MIA PaCa-2; * = tested at 10 μM, alternate conditions, MIA-PACA2
Value Type: inhibition at 10 µM

Previously resolved entries follow.
>>> result("CC(C)COc1ccc(-c2c(-c3ccccc3)sc3c(O)nc(-c4nccn4C)nc23)cn1 [drawing 1889]")
"76 to 100%"
>>> result("Cn1cnc(-c2nc(O)c3scc(-c4cccc(OC(F)(F)F)c4)c3n2)c1 [drawing 1908]")
"76 to 100%"

The compound Cn1cnc(-c2nc(O)c3sc(-c4ccncc4)c(-c4ccccc4)c3n2)c1 [drawing 1851] on MIA-PACA2 pancreatic cancer cell lines: inhibition at 10 µM was 76 to 100%

---

Each entry below carries its reported inhibition at 20 µM.
Target Or Test System: KRas Q61H mutant (Homo sapiens (Human), UniProt P01116, Q61H)
Sequence (P01116-2 other isoform, or with tags, fused parts or gaps Q61H): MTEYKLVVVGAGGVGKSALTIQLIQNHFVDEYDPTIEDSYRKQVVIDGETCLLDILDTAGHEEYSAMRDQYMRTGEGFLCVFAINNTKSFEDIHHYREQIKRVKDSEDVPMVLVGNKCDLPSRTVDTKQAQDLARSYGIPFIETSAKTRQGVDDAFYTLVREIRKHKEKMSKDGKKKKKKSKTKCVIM
Assay Procedure: Ras GTP binding domain inhibition assay (labeled GTP)
Assay Setup: 20 μM compound; read-out: % Inhibition at 20 μM KRas Q61H

>>> result("O=C(NCCc1nnn[nH]1)c1csc2nc(-c3ccccn3)nc(N3CCOCC3)c12 [drawing 2786]")
"51 to 75%"
>>> result("CC(C)COc1ccc(-c2csc3c(O)nc(-c4ccccn4)nc23)cn1 [drawing 2877]")
"51 to 75%"
>>> result("COc1ccnc(-c2nc(O)c3c(C#N)csc3n2)c1 [drawing 2782]")
"51 to 75%"
>>> result("Cc1sc2c(O)nc(-c3ccccn3)nc2c1-c1ccccc1 [drawing 2905]")
"25 to 50%"
>>> result("N#Cc1ccc(COCC(=O)Nc2ccnc(-c3ccccn3)n2)cc1 [drawing 2796]")
"51 to 75%"
>>> result("OCC1(c2ccc(-c3csc4c(O)nc(-c5ccccn5)nc34)cc2)CC1 [drawing 2886]")
"51 to 75%"
>>> result("COc1cccc(C2CN(C(=O)c3csc4c(O)nc(-c5ccccn5)nc34)CCN2)c1 (centres unmarked) [drawing 2773]")
"76 to 100%"
>>> result("CN(C)Cc1ccc(F)c(-c2csc3c(O)nc(-c4ccccn4)nc23)c1 [drawing 2901]")
"51 to 75%"

So for COc1cccc(CC2CN(C(=O)c3csc4c(O)nc(-c5ccccn5)nc34)CCN2)c1 (centres unmarked) [drawing 2830] , the logged inhibition at 20 µM turned out to be 51 to 75%

So for N#Cc1cccc(CCNC(=O)c2csc3nc(-c4ccccn4)nc(N4CCOCC4)c23)c1 [drawing 2787] , the logged inhibition at 20 µM turned out to be 25 to 50%

So for Cc1ccccc1C1CN(C(=O)c2csc3c(O)nc(-c4ccccn4)nc23)CCN1 (centres unmarked) [drawing 2775] , the logged inhibition at 20 µM turned out to be 76 to 100%

---

Tested on: TNFα production in RAW 264.7 macrophage cell line
Assay Procedure: Mouse TNF alpha quantification assay (LPS-stimulated macrophages, ELISA)
Format: cell-based
Assay Setup: RAW264.7, RAW 264.7 murine leukemia virus transformed macrophage cell lines, LPS stimulation, read-out: TNF-α % Inhibition at 30 μM
Value Type: inhibition at 30 µM

Previously resolved entries follow.
>>> result("CC(OCC(F)(F)F)C(=O)Nc1nnc(-c2ccccn2)[nH]1 (stereo not shown) [drawing 1948]")
"1 to 25%"
>>> result("O=c1nc(-c2ccccn2)[nH]c2sc(-c3ccccc3)cc12 [drawing 2028]")
"76 to 100%"
>>> result("CC(Oc1ccc(C(=O)Nc2nnc(-c3ccccn3)[nH]2)cn1)c1ccccc1 (stereo not shown) [drawing 1968]")
"0%"
>>> result("O=C(Nc1nc(-c2ccccn2)cs1)c1ccc(F)cc1 [drawing 2020]")
"26 to 50%"
>>> result("c1ccc(-c2csc3nc(-c4ccccn4)nc(NN4CCOCC4)c23)cc1 [drawing 2159]")
"26 to 50%"
>>> result("O=C(Nc1nnc(-c2ccccn2)[nH]1)c1ncoc1-c1cccs1 [drawing 1963]")
"1 to 25%"

We next turn to a different compound, shown below.
So for Cc1sc2c(O)nc(-c3ccccn3)nc2c1-c1ccccc1 [drawing 2297] , the logged inhibition at 30 µM turned out to be 76 to 100%
